Source of measurements: paper PMC9270183

target_or_system: SARS-CoV-2 Wuhan-Hu-1 RBD (SARS-CoV-2 Wuhan-Hu-1, UniProt P0DTC2)
method: BLI
setup_conditions: both partners purified
pKd: −log10 of the molar value.
reported_property: pKd

# binder, reported_property, recorded_number
data = [
    ("V038 (antibody, V domains shown, IgG; donor BRA15; source: recombinant monoclonal IgG, produced and purified as previously described) VH: QVQLVQSGAEVKKPGASVKVSCKASGYTFTGYYVHWVRQAPGQGLEWMGWINPNSGGTNFAQRFQGRVTMTRDTSISTAYMELSRLRSDDTAVYYCARGITVYGVAPDAFDIWGQGTMVTVSS VL: DIQMTQSPSSLSASVGDRVTITCQASQDISNYLNWYQQKPGKAPKVLIYDASNLEPGVPSRFSGSGSGTDFTFTISSLQPEDIATYYCQQYDNLITFGQGTRLEIK", "pKd", 8.24),
    ("V044 (antibody, V domains shown, IgG; donor BRA15; source: recombinant monoclonal IgG, produced and purified as previously described) VH: QVQLVQSGAEVKKPGASVKVSCKASGYTFTSYDINWVRQATGQGLEWMGWMNPNSGYAGYTQKFQGRITMTRNTSISTAYMELSSLRSEDTAVYFCARISSPTRLDPWGQGTLVTVSS VL: NFMLTQPHSVSESPGKTVTISCSRSRGSIASSFVQWYQQRPGSSPTTVIYDDNQRPSGVPDRFSGSIDSSSNSASLTISGLKTEDEADYYCQSYDSISWVFGGGTKLTVL", "pKd", 8.28),
    ("V046 (antibody, V domains shown, IgG; donor BRA15; source: recombinant monoclonal IgG, produced and purified as previously described) VH: EVQLVESGGGLVQPGRSLRLSCAASGFTFEDYAMHWVRQAPGKGLEWVSGVSWNSGTIGYADSVKGRFIISRDNAKNSLYLQMNSLRAEDTALYYCANLGPTYYDFSRPTPMDVWGKGTTVTVSS VL: QSALTQPASVSGSPGQSITISCTGTSSDVGGYNYVSWYQQHPGKAPKLIIYDVSNRPSGVSNRFSGSKSGNTASLTISGLQAEDEADYYCSSYTSSSTWVFGGGTKLTVL", "pKd", 9.16),
    ("V039 (antibody, V domains shown, IgG; donor BRA15; source: recombinant monoclonal IgG, produced and purified as previously described) VH: QVQLQESGPGLVKPSQTLSLTCTVSGGSISSGSYYWSWIRQPAGKGLEWIGRIYTSGSTNYNPSLKSRVTISVDTSKNQFSLKLSSVTAADTAVYYCARADYSDYDNYYFDYWGQGTLVTVSS VL: NFMLTQPHSVSESPGKTVAISCTRSSGSIASNYVHWYQQRPGSSPTTVIYDDNQRPSGVPDRFSGSIDSSSNSASLTISGLKTEDEADYYCQSYDSSNHNWVFGGGTKLTVL", "pKd", 8.96),
]
